assay: Solubility of SNAP in silicone oil; type: physicochemical; settings: oil or lipid, thermodynamic from solid
reported.endpoint: solubility at 2 min (µg/mL)
Response body: numeric value in µg/mL, unit text excluded.

QUERY: I would be grateful if you could share the reported solubility at 2 min for CC(=O)N[C@@H](C(=O)O)C(C)(C)SN=O (racemic) [SNAP, S-nitroso-N-acetylpenicillamine] .
RESULT: 0.4

# credit: patent US12016974B2
